target: human alpha 2b adrenergic receptor (Homo sapiens, UniProt P18089)
Sequence (P18089 whole entry): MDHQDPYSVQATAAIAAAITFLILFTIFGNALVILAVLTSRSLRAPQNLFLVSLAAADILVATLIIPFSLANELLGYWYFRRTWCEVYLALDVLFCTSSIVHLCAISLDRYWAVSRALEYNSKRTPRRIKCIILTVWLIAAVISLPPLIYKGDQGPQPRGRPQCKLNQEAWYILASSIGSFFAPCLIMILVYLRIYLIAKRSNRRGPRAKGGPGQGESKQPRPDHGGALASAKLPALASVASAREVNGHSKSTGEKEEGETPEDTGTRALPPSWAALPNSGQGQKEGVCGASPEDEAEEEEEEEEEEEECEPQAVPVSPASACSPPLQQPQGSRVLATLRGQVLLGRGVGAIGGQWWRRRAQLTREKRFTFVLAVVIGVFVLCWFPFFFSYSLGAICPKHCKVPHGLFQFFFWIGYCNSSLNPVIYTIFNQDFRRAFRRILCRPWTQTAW
Observed Property: Ki

Notebook: COc1cc2nc(N3CCN(C(=O)OCc4ccccc4)[C@H](C(=O)NC(C)(C)C)C3)nc(N)c2cc1OC , Ki read as > 10 µM

====

Target: human alpha 1b adrenergic receptor (Homo sapiens)
Sequence (P35368 1-520): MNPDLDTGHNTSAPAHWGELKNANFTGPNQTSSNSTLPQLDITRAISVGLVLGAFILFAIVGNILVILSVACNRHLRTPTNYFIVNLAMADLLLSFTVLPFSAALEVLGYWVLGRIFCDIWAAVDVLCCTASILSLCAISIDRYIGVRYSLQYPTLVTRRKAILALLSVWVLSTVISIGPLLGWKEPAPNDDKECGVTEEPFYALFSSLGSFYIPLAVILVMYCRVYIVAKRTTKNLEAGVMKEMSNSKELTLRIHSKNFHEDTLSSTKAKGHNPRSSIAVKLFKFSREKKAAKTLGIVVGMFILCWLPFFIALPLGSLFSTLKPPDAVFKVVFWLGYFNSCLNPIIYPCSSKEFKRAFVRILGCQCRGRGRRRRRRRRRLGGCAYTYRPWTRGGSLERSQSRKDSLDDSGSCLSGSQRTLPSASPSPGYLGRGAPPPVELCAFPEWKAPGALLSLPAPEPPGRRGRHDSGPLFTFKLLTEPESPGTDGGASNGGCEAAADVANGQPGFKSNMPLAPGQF
Observed Property: Ki

The compound COc1cc2nc(N3CCN(C(=O)c4ccco4)[C@H](C(=O)NC(C)(C)C)C3)nc(N)c2cc1OC [Compound 4a] , when measured on human alpha 1b adrenergic receptor (Homo sapiens), yielded Ki of 3.4 nM

====

Target chain: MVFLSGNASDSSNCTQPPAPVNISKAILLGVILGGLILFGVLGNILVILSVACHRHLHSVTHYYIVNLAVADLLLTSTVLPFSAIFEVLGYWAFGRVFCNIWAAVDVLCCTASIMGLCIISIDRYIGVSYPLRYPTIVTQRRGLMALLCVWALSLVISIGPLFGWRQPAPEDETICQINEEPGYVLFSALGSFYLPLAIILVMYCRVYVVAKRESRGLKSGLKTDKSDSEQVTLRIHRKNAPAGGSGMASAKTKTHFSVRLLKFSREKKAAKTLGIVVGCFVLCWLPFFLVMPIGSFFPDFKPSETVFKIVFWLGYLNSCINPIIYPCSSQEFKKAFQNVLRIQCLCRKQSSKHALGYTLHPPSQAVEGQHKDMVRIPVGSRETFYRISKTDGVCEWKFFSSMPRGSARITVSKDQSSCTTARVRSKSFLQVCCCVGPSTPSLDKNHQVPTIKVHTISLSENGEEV
Observed Property: pKi
# pKi = -log10(concentration in molar units)

Notebook: COc1cc2nc(N3CCN(C(=O)OCc4ccccc4)[C@H](C(=O)NC(C)(C)C)C3)nc(N)c2cc1OC [Compound 2a] , pKi read as 6.33

====

target: human alpha 1d adrenergic receptor (Homo sapiens, UniProt P25100)
Sequence (P25100 whole entry): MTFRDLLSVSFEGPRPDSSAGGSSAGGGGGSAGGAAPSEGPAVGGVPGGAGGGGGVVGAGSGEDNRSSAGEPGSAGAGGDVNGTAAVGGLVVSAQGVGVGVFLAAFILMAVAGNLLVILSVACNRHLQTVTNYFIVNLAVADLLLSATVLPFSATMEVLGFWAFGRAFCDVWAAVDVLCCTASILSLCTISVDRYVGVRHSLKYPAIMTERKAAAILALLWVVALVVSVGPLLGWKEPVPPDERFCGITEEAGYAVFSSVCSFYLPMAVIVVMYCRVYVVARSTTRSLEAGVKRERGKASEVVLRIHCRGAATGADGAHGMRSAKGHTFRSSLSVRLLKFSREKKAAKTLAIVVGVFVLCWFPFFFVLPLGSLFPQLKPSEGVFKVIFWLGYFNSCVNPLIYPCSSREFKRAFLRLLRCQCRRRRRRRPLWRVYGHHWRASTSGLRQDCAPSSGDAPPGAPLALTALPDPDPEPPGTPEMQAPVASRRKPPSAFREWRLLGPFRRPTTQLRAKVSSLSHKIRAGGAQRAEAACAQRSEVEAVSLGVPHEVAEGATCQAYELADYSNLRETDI
Observed Property: pKi
# pKi = -log10(concentration in molar units)

The compound COc1cc2nc(N3CCN(C(=O)OCc4ccccc4)[C@H](C(=O)NC(C)(C)C)C3)nc(N)c2cc1OC , when measured on human alpha 1d adrenergic receptor (Homo sapiens, UniProt P25100), yielded pKi of 7.54

====

Sequence of the target: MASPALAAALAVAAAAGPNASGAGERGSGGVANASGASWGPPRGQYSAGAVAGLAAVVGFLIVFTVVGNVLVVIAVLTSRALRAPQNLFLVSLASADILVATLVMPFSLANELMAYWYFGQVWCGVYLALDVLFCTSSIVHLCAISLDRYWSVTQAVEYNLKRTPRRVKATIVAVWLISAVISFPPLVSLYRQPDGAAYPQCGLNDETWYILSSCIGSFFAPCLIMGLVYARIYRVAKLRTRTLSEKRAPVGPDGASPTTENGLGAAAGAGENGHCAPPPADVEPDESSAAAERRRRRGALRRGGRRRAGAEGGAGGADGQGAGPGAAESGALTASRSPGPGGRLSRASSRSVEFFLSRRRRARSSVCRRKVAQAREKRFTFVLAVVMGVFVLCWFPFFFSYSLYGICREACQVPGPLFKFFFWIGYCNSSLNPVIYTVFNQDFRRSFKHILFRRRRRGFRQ
Observed Property: pKi
# pKi = -log10(concentration in molar units)

Notebook: COc1cc2nc(N3CCN(C(=O)OCc4ccccc4)[C@H](C(=O)NC(C)(C)C)C3)nc(N)c2cc1OC [Compound 2a] , pKi read as 6.15
